test: 14C assay with IPTG-induced recombinant E. coli cells: 14CO2 captured from [14C]-carboxyl-labeled dicamba; conditions: induced recombinant E. coli cells, [14C]-carboxyl-labeled dicamba, 14CO2 capture
measured_property: Dicamba Decarboxylase Activity

[[record]]
molecule = "99 (protein, listed as Ralstonia solanacearum) MAIIDCHGHFTTAPTALEDWRKRQIANLATPALGPSPDDLKISDDALTEAIRANQLRLMQARGSDLTIFSPRASFMAHHIGDFHTSATWAAICNALCHRVSQLFPDHFVGAAMLPQSPGVDIRTCIPELARCIVDYGFVGVNLNPDPSGGHWTSPPLSDPYWFPLYEKLVEYDVPAMIHVSTSCNACFHTTGAHYLNADTTAFMQVLTSDLFRRFPTLKFVIPHGGGAVPYHWGRFRGLAQELKTPPLQEHLLHNVFFDTCVYHQPGIDLLTRVIPVDNILFASEMIGAVRGIDPETGHPFDDTRRYIDQAHTLSAEDRHKIYEGNARRVYPRLDARLKARGR"
val = "No"

[[record]]
molecule = "39 (protein, listed as Agrobacterium fabrum) MAQGKVALEEHFAIPETLQDSAGFVPGDCWTELQHRLLDIQDTRLKLMDAHGIETMILSLNAPAVQAIPDKTKAIEIARRANDALAEECAKRPDRFLAFAALPLQDPDAATQELRRCVNDLGFVGALVNGFSQEGDGQTPLYYDLPQYRPFWGEVEKLDVPFYLHPRNPLPQDSRIYDGHPWLLGPTWAFAQETAVHALRLMASGLFDEHPRLDIILGHMGEGLPYMMWRIDHRNAWVKLPPRYPAKRRFVDYFNENFHITTSGNFRTQTLIDAILEIGADRILFSTDWPFENIDHASDWFHATSIAEADRVKIGRTNARRLFKLDGR"
val = "No"


FYI, the data here is from patent US20160053277A1.
